Tested on: SK-MEL-5 melanoma
Test: NCI tumour cell line growth inhibition, 48 h

{"columns": ["Compound", "TGI"],
 "data": [
  ["O=C(O)c1ccc2c(c1C(=O)O)C(=O)OC2(c1ccc(O)cc1)c1ccc(O)cc1", "> 100 µM"],
  ["O=c1[nH]c(=S)[nH]c2c1C(c1ccc([N+](=O)[O-])cc1)c1c([nH]c(=S)[nH]c1=O)O2", "> 100 µM"],
  ["Cc1ccc(NC(=O)CC2Sc3ccccc3NC2=O)cc1C (stereo not drawn)", "> 100 µM"]
]}

----------
Tested on: NCI-H226 lung
Test: NCI tumour cell line growth inhibition, 48 h

{"columns": ["Molecule", "TGI"],
 "data": [
  ["CCN(CC)CCNC(=O)c1cc2cc(NC(=O)c3cc4cc([N+](=O)[O-])ccc4[nH]3)ccc2[nH]1", "> 87.3 µM"],
  ["CCOC(=O)C1=C(C(=O)OCC)C2c3ccccc3C=CN2C(C(=O)OCC)=C(SC)S1 (centres undefined)", "> 100 µM"],
  ["CC(C)c1cc2c(cc1S(=O)(=O)O)[C@@]1(C)CCC[C@@](C)(C(=O)O)C1CC2 (some centres undefined)", "> 100 µM"],
  ["CCOP(=O)(OCC)C(F)(F)c1ccc(CC(NC(=O)OC(C)(C)C)C(=O)O)cc1 (centres undefined)", "> 10 µM"]
]}

----------
The following molecules are shown together with reported TGI values.
Test system: PC-3 prostate
Assay: NCI tumour cell line growth inhibition, 48 h
Measurement Type: TGI

{"columns": ["Molecule", "System", "Measurement Type", "Result"],
 "data": [
  ["O=[N+]([O-])c1ccc2[nH]nc(OCc3ccccc3Cl)c2c1", "PC-3 prostate", "TGI", "> 100 µM"],
  ["CCOP(=O)(OCC)C(F)(F)c1ccc(CC(NC(=O)OC(C)(C)C)C(=O)O)cc1 (stereo unspecified)", "PC-3 prostate", "TGI", "> 10 µM"],
  ["CC(=O)N1C(C(=O)NC2CCCCC2)CSC1c1ccccc1 (stereo unspecified)", "PC-3 prostate", "TGI", "> 100 µM"],
  ["CC1=Nc2ccccc2OC(C)=C1N=Nc1ccc2nc(C)[nH]c2c1", "PC-3 prostate", "TGI", "> 100 µM"],
  ["CC(=O)CC(OC(C)=O)C1=CCC2C(CC1C)OC(=O)C2C (stereo unspecified)", "PC-3 prostate", "TGI", "> 100 µM"],
  ["COc1ccc(/C=N/NC(=O)c2cccc3cc[nH]c23)cc1O", "PC-3 prostate", "TGI", "> 100 µM"]
]}

----------
The following molecules are shown together with reported TGI values.
Test system: SK-OV-3 ovarian
Experiment: NCI tumour cell line growth inhibition, 48 h
Measurement Type: TGI

{"columns": ["Molecule", "Measurement Type", "Result"],
 "data": [
  ["COc1cc(S(=O)(=O)Nc2nc(-c3ccc(N4C(=O)C(CC(=O)O)SC4c4cccs4)cc3)cs2)ccc1Cl (configuration not stated)", "TGI", "> 100 µM"],
  ["CN1CC[C@@H](NC(=O)Nc2ccc(C#N)cc2)C[C@@H]1c1nc2ccccc2[nH]1", "TGI", "> 100 µM"],
  ["Nc1ccccc1SC(CC(=O)c1ccccc1)c1cccc([N+](=O)[O-])c1 (configuration not stated)", "TGI", "32 µM"],
  ["O=C(/C=C/c1ccc(O)cc1)c1ccc(O)cc1", "TGI", "> 100 µM"],
  ["CC(=O)Nn1c(=S)[nH]c2ccccc21", "TGI", "> 100 µM"],
  ["COc1cccc(C(=O)NC(c2ccc(C)cc2)c2cc(Cl)c3cccnc3c2O)c1 (configuration not stated)", "TGI", "11.3 µM"],
  ["CN(C)CCNS(=O)(=O)c1ccc(N)cc1", "TGI", "> 100 µM"]
]}

----------
Test system: HCT-116 colon
Test: NCI tumour cell line growth inhibition, 48 h
Measurement Type: TGI

{"columns": ["Compound", "Measurement Type", "Result"],
 "data": [
  ["CN(C)CCn1c2c3ccccc3ccc2c2oc(=O)c3ccccc3c21", "TGI", "29.1 µM"],
  ["O=C(/C=C/c1ccccc1)C[C@@H](O)C[C@@H]1CC=CC(=O)O1", "TGI", "6.38 µM"],
  ["Cc1ccc(-c2csc(=Nc3ccccc3)n2NC(=O)c2ccncc2)cc1", "TGI", "> 100 µM"],
  ["CC1SC(c2ccc(F)cc2)N(NC(=O)C(O)c2ccccc2)C1=O (stereo unspecified)", "TGI", "> 100 µM"],
  ["COc1cccc(-c2nc(-c3ccc(NC(=O)OC(C)C)cc3)[nH]c2-c2ccnc(Br)c2)c1", "TGI", "> 100 µM"],
  ["CC1=Nc2ccccc2OC(C)=C1N=Nc1ccc2nc(C)[nH]c2c1", "TGI", "> 100 µM"],
  ["CC(C)[C@@H]1C=C2CC[C@H]3[C@](C)(CN)CCC[C@]3(C)[C@H]2CC1", "TGI", "3.18 µM"],
  ["COc1ccc(N=NC(=Nc2ccccc2)c2ccc(N(CCC#N)CCC#N)cc2)cc1", "TGI", "> 100 µM"],
  ["S=c1sc2c(n1-c1ccccc1)NC=NC2S (stereo unspecified)", "TGI", "> 100 µM"],
  ["N#CC(Cc1ccccc1)N(CCC1=CCCCC1)C(c1ccccc1)c1ccccc1 (stereo unspecified)", "TGI", "> 100 µM"],
  ["COc1cc(-c2ccc3cc(OC)c(OC)c(OC)c3c2)cc(OC)c1OC", "TGI", "> 100 µM"],
  ["CCCCCCCC/C=C\\CCCCCCCCCCCC(=O)O", "TGI", "60.9 µM"],
  ["CN(C)c1cc(NN=C(c2ccc(O)cc2)c2ccc(O)cc2)c([N+](=O)[O-])cc1[N+](=O)[O-]", "TGI", "21.1 µM"],
  ["COc1ccc(-c2cn[nH]c2-c2cc(OC)c(OC)c(OC)c2)cc1", "TGI", "11.4 µM"],
  ["NC(N)=Nc1ccc(CC(N)NCC(=O)O)cc1 (stereo unspecified)", "TGI", "> 25 µM"],
  ["O=C(NCc1ccccc1)c1n[nH][nH]c1=O", "TGI", "> 100 µM"]
]}

----------
Test system: SK-MEL-5 melanoma
Assay: NCI tumour cell line growth inhibition, 48 h
The following molecules are shown together with reported TGI values.
Measurement Type: TGI

{"columns": ["Smiles Repr", "Measurement Type", "Result"],
 "data": [
  ["COC(=O)C1=C(C(=O)OC)SC(=C2SCSC3=C2SC(C(=O)OC)=C(C(=O)OC)C32SC3=C(CCCC3)S2)S1", "TGI", "> 100 µM"],
  ["C[C@]12CC[C@H](O)CC1=CC[C@@H]1[C@@H]2CC[C@]2(C)C(=N/N)/C(=N\\O)C[C@@H]12", "TGI", "> 100 µM"],
  ["COc1ccc2nc(NC(=O)CSc3nnc4n3S(=O)(=O)c3ccccc3N4c3ccccc3)sc2c1", "TGI", "> 100 µM"],
  ["COc1nncc2[nH]c(-c3ccccc3)cc12", "TGI", "> 100 µM"],
  ["CC(=O)c1c2c(c3ccccc3c1O)O[C@@H]1OCC[C@H]21", "TGI", "> 100 µM"]
]}

----------
System: HOP-92 NSCLC
Experiment: NCI tumour cell line growth inhibition, 48 h
Quick rule for you: TGI at 50 µM or higher means True, lower means False.

{"columns": ["Molecule", "Class Label"],
 "data": [
  ["CC(=O)/C=C/C1=C(C)CCCC1(C)CC(C)C (centres undefined)", "False"],
  ["O=C(/C=C/c1ccc2c(c1)OCO2)c1ccc(O)cc1", "False"],
  ["NC1(c2cc3ccccc3s2)CCCC1", "True"],
  ["C(=C(c1ccc(OC2CCCCO2)cc1)c1ccc(OC2CCCCO2)cc1)c1ccccc1 (centres undefined)", "False"],
  ["O=C(Oc1ccc(Cl)cc1)c1ccccc1Nc1ccnc(C(F)(F)F)c1", "True"],
  ["COc1cc(C2CC(C)(O)Oc3cc4c(cc32)OCO4)cc(OC)c1OC (centres undefined)", "True"],
  ["Cc1oc2c(cc(O)c3cc(O)ccc32)c2cccc1-2", "True"],
  ["CCOC(=S)SCC(=O)O", "True"],
  ["O=C(c1ccccn1)C1(N2CCCCC2)CCCCC1", "True"],
  ["CC1SC(c2ccc(F)cc2)N(NC(=O)C(O)c2ccccc2)C1=O (centres undefined)", "True"],
  ["CC(C)(C)c1cc2ccc(C(N)=O)cc2c(=O)[nH]1", "True"],
  ["COc1cc(S(=O)(=O)Nc2nc(-c3ccc(N4C(=O)C(CC(=O)O)SC4c4cccs4)cc3)cs2)ccc1Cl (centres undefined)", "True"],
  ["N#C/C(=C\\c1cccc(Cl)c1Cl)c1ccccc1", "True"],
  ["CCCCCCCCCCCCC(O)c1ccc(C#CCCCCCCCCCO)o1 (centres undefined)", "False"],
  ["O=C(O)c1ccc2c(c1C(=O)O)C(=O)OC2(c1ccc(O)cc1)c1ccc(O)cc1", "True"],
  ["CC(C)c1cc2c(cc1S(=O)(=O)O)[C@@]1(C)CCC[C@@](C)(C(=O)O)C1CC2 (some centres undefined)", "True"],
  ["CCOC(=O)Nc1sc2c(c1C#N)CCCC2", "True"],
  ["N#Cc1c[nH]n2c(N=Nc3ccc(Cl)cc3)c(O)nc12", "True"]
]}
